- tested system: IL16_4, Q14005
- Sequence (Q14005 1229-1329): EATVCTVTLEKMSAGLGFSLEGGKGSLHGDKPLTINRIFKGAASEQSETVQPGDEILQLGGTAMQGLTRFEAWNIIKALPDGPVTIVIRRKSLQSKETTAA
- assay method text: holdup assay
- Set-up: key: below the threshold = too weak to quantify, mostly under pKd 3.1 to 4
- conditions used: plain residues with an end cap or a label only (N-terminal biotin on a linker: ado-ado)
assay metric: pKd

# binder, assay metric, experimental value
records = [
    ("EIPAQSPTCV [FZD10, Q9ULW2]", "pKd", "below the threshold"),
    ("ARGPPRESEV [FAM110D, Q8TAY7]", "pKd", "below the threshold"),
    ("DGVNEKVSCV [HTR2A, P28223]", "pKd", 3.56),
    ("PPGKHLVTEV [KCNA7, Q96RP8]", "pKd", "below the threshold"),
    ("EDPRVEVTQF [SLC22A9, Q8IVM8]", "pKd", "below the threshold"),
]

Exercise: Could you share which pKd value was measured for GIKKITSTAL [RPS6KA3, P51812] ?
Solution: 3.78

Exercise: Ok, now NTANRRTTPV [CACNG2, Q9Y698]
Solution: below the threshold

Exercise: Ok, now ARSAAASNYV [CLDN4, O14493]
Solution: below the threshold
